Assay: CaCo2 Transwell transport (Papp, efflux ratio)
Format: in vitro ADME, human
Conditions: human, Caco-2, 10 µM; read-out: Efflux Ratio (Papp B–A / Papp A–B)
Procedure: The Transwell system was developed using the wild type Caco-2 cell line (passage 15–25) cultured in Dulbecco’s […] medium (DMEM) at standard conditions of 37 °C, 5% CO2, and 100% humidity as previously reported. […] The integrity of the developed monolayer was assessed by TEER before administration of compound solutions and after the final sampling stage. […] The efflux ratio was calculated according to the equation: Efflux ratio=PappB→A/PappA→B. […]
READOUT TYPE: efflux ratio at 180 min, 10 µM

Notebook: C[C@@H](Oc1cc(-c2cnn(C3CCNCC3)c2)cnc1N)c1c(Cl)ccc(F)c1Cl [Crizotinib, crizotinib] , efflux ratio at 180 min, 10 µM read as > 5

Notebook: CN(C)C/C=C/C(=O)Nc1cc2c(Nc3ccc(F)c(Cl)c3)ncnc2cc1O[C@H]1CCOC1 [Afatinib, afatinib] , efflux ratio at 180 min, 10 µM read as > 5

Notebook: CNC(=O)c1cc(Oc2ccc(NC(=O)Nc3ccc(Cl)c(C(F)(F)F)c3)cc2)ccn1 [Sorafenib, sorafenib] , efflux ratio at 180 min, 10 µM read as 0.92

Notebook: COc1cc2ncnc(Nc3ccc(F)c(Cl)c3)c2cc1OCCCN1CCOCC1 [Gefitinib, gefitinib] , efflux ratio at 180 min, 10 µM read as 0.33

Notebook: C#Cc1cccc(Nc2ncnc3cc(OCCOC)c(OCCOC)cc23)c1 [Erlotinib, erlotinib] , efflux ratio at 180 min, 10 µM read as 1.6

====

test: CaCo2 Transwell transport (Papp, efflux ratio); format: in vitro ADME, human; details: human, Caco-2; 10 µM, A–B; read-out: Papp (Apical Basolateral)
READOUT TYPE: Papp A→B at 180 min, 10 µM
Report as: number unit

Notebook: CN(C)C/C=C/C(=O)Nc1cc2c(Nc3ccc(F)c(Cl)c3)ncnc2cc1O[C@H]1CCOC1 [Afatinib, afatinib] , Papp A→B at 180 min, 10 µM read as 1.5 ×10⁻⁶ cm/s

Notebook: CNC(=O)c1cc(Oc2ccc(NC(=O)Nc3ccc(Cl)c(C(F)(F)F)c3)cc2)ccn1 [Sorafenib, sorafenib] , Papp A→B at 180 min, 10 µM read as 10.1 ×10⁻⁶ cm/s

Notebook: COc1cc2ncnc(Nc3ccc(F)c(Cl)c3)c2cc1OCCCN1CCOCC1 [Gefitinib, gefitinib] , Papp A→B at 180 min, 10 µM read as 0.57 ×10⁻⁶ cm/s

Notebook: C#Cc1cccc(Nc2ncnc3cc(OCCOC)c(OCCOC)cc23)c1 [Erlotinib, erlotinib] , Papp A→B at 180 min, 10 µM read as 0.48 ×10⁻⁶ cm/s

====

experiment: CaCo2 Transwell transport (Papp, efflux ratio); format: in vitro ADME, human; details: human, Caco-2, with erlotinib (co-incubated, concentration not stated), 10 µM, with erlotinib; read-out: Efflux Ratio (Papp B–A / Papp A–B)
READOUT TYPE: efflux ratio at 180 min, 10 µM
Answer with a number only.

Notebook: CNC(=O)c1cc(Oc2ccc(NC(=O)Nc3ccc(Cl)c(C(F)(F)F)c3)cc2)ccn1 [Sorafenib, sorafenib] , efflux ratio at 180 min, 10 µM read as 0.71

====

Task for the reader: assign each of the following compounds its reported Intracellular accumulation in HT29 cells.
Tested on: HT29 cells
Assay: Intracellular accumulation in HT29 colon cancer cells
Format: in vitro ADME
Details: after 24 h
Method: In order to get insight in the barrier role of the CaCo2 model system, we determined the intracellular accumulation of the TKISs at the end of the transport period, in normal monolayers of CaCo2 cells and in several other colon cancer cell lines. At the end of the transport period (both from the B->A and A->B incubations), cells were harvested and intracellular accumulation was determined. […]

Notebook: `CNC(=O)c1cc(Oc2ccc(NC(=O)Nc3ccc(Cl)c(C(F)(F)F)c3)cc2)ccn1` , Intracellular accumulation in HT29 cells read as 6 pmol/μg protein

Notebook: `Cc1nc(Nc2ncc(C(=O)Nc3c(C)cccc3Cl)s2)cc(N2CCN(CCO)CC2)n1` , Intracellular accumulation in HT29 cells read as 0.14 pmol/μg protein

Notebook: `C#Cc1cccc(Nc2ncnc3cc(OCCOC)c(OCCOC)cc23)c1` , Intracellular accumulation in HT29 cells read as 0.035 pmol/μg protein

Notebook: `CCN(CC)CCNC(=O)c1c(C)[nH]c(/C=C2\C(=O)Nc3ccc(F)cc32)c1C` , Intracellular accumulation in HT29 cells read as 32.2 pmol/μg protein
